# system under test: HLA-A*02:01 (Homo sapiens, UniProt P04439, D140Y/D185E/D98H/E176V/E277Q/G131W/G231S/I119V/I121R/I166T/I218V/L300P/L318F/N151K/N90K/P208A/P217A/Q86G/Q94H/R138H/R169H/T345S)
# method: MHC binding assay (UV-ligand exchange, anti-β2m ELISA, peptide exchange yield)
# setup conditions: binding to HLA-A*02:01
measured property: Peptide exchange (MHC class I binding score, peptide exchange yield)

Some solved cases for reference:
substance	val
562 (YLEELPEKLKL; listed as Homo sapiens) [compound 562]	“+++” (>50 = +++)
380 (TLIEDEIATI; listed as Homo sapiens) [compound 380]	“++” (>20% = ++)
432 (TLIEESAKV; listed as Homo sapiens) [compound 432]	“++” (>20% = ++)
321 (GLFEDVTQPGILL; listed as Homo sapiens) [compound 321]	“++++” (>75% = ++++)
286 (YLFPGIPEL; listed as Homo sapiens) [compound 286]	“+++” (>50 = +++)
76 (ILIDSIYKV; listed as Homo sapiens) [compound 76]	“+++” (>50 = +++)

**Q:** I'd like to know its Peptide exchange (MHC class I binding score, peptide exchange yield). The substance in question is 449 (KLAEGLDIQL; listed as Homo sapiens) [compound 449]
**A:** “+++” (>50 = +++)

**Q:** Quick one: 374 (FLLQQHLISA; listed as Homo sapiens) [compound 374]
**A:** “++” (>20% = ++)

**Q:** Quick one: 164 (ALLPQPKNLTV; listed as Homo sapiens) [compound 164]
**A:** “+++” (>50 = +++)

**Q:** Quick one: 519 (GLLHLTLLL; listed as Homo sapiens) [compound 519]
**A:** “+++” (>50 = +++)

**Q:** Quick one: 17 (GLLPGDRLVSV; listed as Homo sapiens) [compound 17]
**A:** “+++” (>50 = +++)

**Q:** Quick one: 460 (AMLEKNYKL; listed as Homo sapiens) [compound 460]
**A:** “++++” (>75% = ++++)

====

# system under test: HLA-A*02:01 (Homo sapiens, UniProt P04439, D140Y/D185E/D98H/E176V/E277Q/G131W/G231S/I119V/I121R/I166T/I218V/L300P/L318F/N151K/N90K/P208A/P217A/Q86G/Q94H/R138H/R169H/T345S)
# method: MHC binding assay (UV-ligand exchange, anti-β2m ELISA, peptide exchange yield)
# setup conditions: binding to HLA-A*02:01
measured property: Peptide exchange (MHC class I binding score, peptide exchange yield)

substance	val
565 (ALQETPTSV; listed as Homo sapiens) [compound 565]	“++” (>20% = ++)
97 (SLINGSFLV; listed as Homo sapiens) [compound 97]	“+++” (>50 = +++)
516 (AVGPASILKEV; listed as Homo sapiens) [compound 516]	“++” (>20% = ++)
563 (WLLPYNGVTV; listed as Homo sapiens) [compound 563]	“+++” (>50 = +++)
15 (VLLTFKIFL; listed as Homo sapiens) [compound 15]	“++” (>20% = ++)
137 (TLVLTLPTV; listed as Homo sapiens) [compound 137]	“++++” (>75% = ++++)

**Q:** I'd like to know its Peptide exchange (MHC class I binding score, peptide exchange yield). The substance in question is 88 (FLLVGDLMAV; listed as Homo sapiens) [compound 88]
**A:** “+++” (>50 = +++)

**Q:** Quick one: 295 (VLDRESPNV; listed as Homo sapiens) [compound 295]
**A:** “+++” (>50 = +++)

**Q:** Quick one: 461 (VMFRTPLASV; listed as Homo sapiens) [compound 461]
**A:** “++” (>20% = ++)

**Q:** Quick one: 609 (ALWKQLLEL; listed as Homo sapiens) [compound 609]
**A:** “+++” (>50 = +++)

**Q:** Quick one: 6 (VLVSDGVHSV; listed as Homo sapiens) [compound 6]
**A:** “+++” (>50 = +++)

====

# system under test: HLA-A*02:01 (Homo sapiens, UniProt P04439, D140Y/D185E/D98H/E176V/E277Q/G131W/G231S/I119V/I121R/I166T/I218V/L300P/L318F/N151K/N90K/P208A/P217A/Q86G/Q94H/R138H/R169H/T345S)
# method: MHC binding assay (UV-ligand exchange, anti-β2m ELISA, peptide exchange yield)
# setup conditions: binding to HLA-A*02:01
measured property: Peptide exchange (MHC class I binding score, peptide exchange yield)

Some solved cases for reference:
substance	val
556 (FLTDLEDLTL; listed as Homo sapiens) [compound 556]	“+++” (>50 = +++)
568 (TLYDIAHTPGV; listed as Homo sapiens) [compound 568]	“++++” (>75% = ++++)
463 (SLVESHLSDQLTL; listed as Homo sapiens) [compound 463]	“+++” (>50 = +++)
124 (ALYETELADA; listed as Homo sapiens) [compound 124]	“++” (>20% = ++)
473 (AMATESILHFA; listed as Homo sapiens) [compound 473]	“+++” (>50 = +++)

**Q:** I'd like to know its Peptide exchange (MHC class I binding score, peptide exchange yield). The substance in question is 387 (ALFQATAEV; listed as Homo sapiens) [compound 387]
**A:** “++++” (>75% = ++++)

**Q:** Quick one: 206 (VLQEGKLQKLAQL; listed as Homo sapiens) [compound 206]
**A:** “+++” (>50 = +++)

**Q:** Quick one: 616 (VLIDEVESL; listed as Homo sapiens) [compound 616]
**A:** “+++” (>50 = +++)

**Q:** Quick one: 138 (YQYPRAILSV; listed as Homo sapiens) [compound 138]
**A:** “+++” (>50 = +++)

**Q:** Quick one: 170 (RLQETLSAA; listed as Homo sapiens) [compound 170]
**A:** “+++” (>50 = +++)

**Q:** Quick one: 284 (ILLSQTTGV; listed as Homo sapiens) [compound 284]
**A:** “+++” (>50 = +++)

====

# system under test: HLA-A*02:01 (Homo sapiens, UniProt P04439, D140Y/D185E/D98H/E176V/E277Q/G131W/G231S/I119V/I121R/I166T/I218V/L300P/L318F/N151K/N90K/P208A/P217A/Q86G/Q94H/R138H/R169H/T345S)
# method: MHC binding assay (UV-ligand exchange, anti-β2m ELISA, peptide exchange yield)
# setup conditions: binding to HLA-A*02:01
measured property: Peptide exchange (MHC class I binding score, peptide exchange yield)

substance	val
615 (VLPPDTDPA; listed as Homo sapiens) [compound 615]	“++” (>20% = ++)
476 (ALMERTGYSMV; listed as Homo sapiens) [compound 476]	“+++” (>50 = +++)
273 (NLFQSVREV; listed as Homo sapiens) [compound 273]	“++” (>20% = ++)
50 (SLSELEALM; listed as Homo sapiens) [compound 50]	“+++” (>50 = +++)

**Q:** I'd like to know its Peptide exchange (MHC class I binding score, peptide exchange yield). The substance in question is 317 (SLAALVVHV; listed as Homo sapiens) [compound 317]
**A:** “+++” (>50 = +++)

====

# system under test: HLA-A*02:01 (Homo sapiens, UniProt P04439, D140Y/D185E/D98H/E176V/E277Q/G131W/G231S/I119V/I121R/I166T/I218V/L300P/L318F/N151K/N90K/P208A/P217A/Q86G/Q94H/R138H/R169H/T345S)
# method: MHC binding assay (UV-ligand exchange, anti-β2m ELISA, peptide exchange yield)
# setup conditions: binding to HLA-A*02:01
measured property: Peptide exchange (MHC class I binding score, peptide exchange yield)

substance	val
274 (SLLFSLFEA; listed as Homo sapiens) [compound 274]	“++” (>20% = ++)
458 (SLIDKLYNI; listed as Homo sapiens) [compound 458]	“++” (>20% = ++)
491 (GLNDRSDAV; listed as Homo sapiens) [compound 491]	“++” (>20% = ++)

====

# system under test: HLA-A*02:01 (Homo sapiens, UniProt P04439, D140Y/D185E/D98H/E176V/E277Q/G131W/G231S/I119V/I121R/I166T/I218V/L300P/L318F/N151K/N90K/P208A/P217A/Q86G/Q94H/R138H/R169H/T345S)
# method: MHC binding assay (UV-ligand exchange, anti-β2m ELISA, peptide exchange yield)
# setup conditions: binding to HLA-A*02:01
measured property: Peptide exchange (MHC class I binding score, peptide exchange yield)

substance	val
240 (ILLEQAFYL; listed as Homo sapiens) [compound 240]	“+++” (>50 = +++)
167 (KVLEVTEEFGV; listed as Homo sapiens) [compound 167]	“+++” (>50 = +++)
54 (SLLEQGKEPWMV; listed as Homo sapiens) [compound 54]	“+++” (>50 = +++)

These data points were gathered from patent US10239925B2.
